Sourced from patent US5821262A

Reported IC50 for target or system collagenase (Homo sapiens), by entry.
Give bare numbers, in nM.

CNC(=O)CC[C@H](NC(=O)[C@H](CC(C)C)[C@H](CSc1ccc(O)cc1)C(=O)NO)C(=O)NC : 6

Note: attention shifts to another entry.
Ask: Could you tell me which IC50 is on file for CNC(=O)[C@H](CCCCNC(=O)OC(C)(C)C)NC(=O)[C@H](CC(C)C)[C@H](CSc1ccc(O)cc1)C(=O)NO ?
Reply: 15
